Assay: Acute toxicity test, oral administration to mice
Type: in vivo
Details: mouse, in vivo, Male mice
Measured LD50, listed per entry.
experimental.endpoint: LD50

>>> result("CCOC(=O)CCCOc1ccc2c(c1)CCC(=O)N2 [compound 29, reference compound]")
"> 1000 mg/kg"
>>> result("CCOC(=O)C(C)Oc1cccc2c1NC(=O)CC2 (stereo not drawn) [compound 37, reference compound]")
"900 to 1000 mg/kg"
>>> result("O=C(O)CCCCCCOc1ccc2c(c1)CCC(=O)N2 [compound 36, reference compound]")
"> 1000 mg/kg"
>>> result("CCOC(=O)CCCOc1ccc2[nH]c(=O)ccc2c1 [compound 34, 6-(3-Ethoxycarbonylpropoxy)carbostyril, reference compound]")
"> 1000 mg/kg"
>>> result("CC(=O)OC1CCC(N(C)C(=O)CCCOc2ccc3[nH]c(=O)ccc3c2)CC1 (stereo not drawn) [compound 3]")
"> 1000 mg/kg"
>>> result("CN(C(=O)CCCOc1ccc2c(c1)CCC(=O)N2)C1CCCCC1 [compound 15]")
"> 1000 mg/kg"
>>> result("CN(C(=O)CCCOc1ccc2[nH]c(=O)ccc2c1)C1CCCCC1 [compound 16]")
"> 1000 mg/kg"
>>> result("CC(C)OC(=O)C(C)Oc1ccc2[nH]c(=O)ccc2c1 (stereo not drawn) [compound 31, reference compound]")
"900 to 1000 mg/kg"
>>> result("O=C(CCCOc1ccc2[nH]c(=O)ccc2c1)N(Cc1ccccc1)C1CCCCC1 [compound 5]")
"> 1000 mg/kg"
>>> result("CCOC(=O)CCCOc1cccc2c1CCC(=O)N2 [compound 32, reference compound]")
"> 1000 mg/kg"
>>> result("O=C1CCc2cc(OCCCC(=O)N(C3CCCCC3)C3CCCCC3Cl)ccc2N1 (stereo not drawn) [compound 7]")
"> 1000 mg/kg"
>>> result("CC(C)NC(=O)CCOc1cccc2c1CCC(=O)N2 [compound 41, reference compound]")
"500 to 800 mg/kg"
>>> result("CN(C)C(=O)COc1cccc2c1CCC(=O)N2 [compound 43, reference compound]")
"500 to 700 mg/kg"
>>> result("O=C(O)CCCOc1ccc2[nH]c(=O)ccc2c1 [compound 39, 6-(3-Carboxypropoxy)carbostyril, reference compound]")
"> 1000 mg/kg"
>>> result("O=C1CCc2cc(OCCCC(=O)N(c3ccccc3)c3ccccc3)ccc2N1 [compound 24]")
"> 1000 mg/kg"

###

Measured inhibition at 10 µM (stock), listed per entry.
Test system: rabbit platelet
Assay: Collagen-induced aggregation in rabbit platelets (AG-II Aggregometer)
Type: cell-based
Conditions: Oryctolagus cuniculus, Platelet; 10^-5 mole; read-out: Inhibition effect on collagen induced aggregation in rabbit platelet
experimental.endpoint: inhibition at 10 µM (stock) (%)

>>> quantitative_readout("CN(C(=O)CC(O)COc1ccc2[nH]c(=O)ccc2c1)C1CCCCC1 (stereo not shown)")
86.8
>>> quantitative_readout("CN(C(=O)CCCOc1ccc(O)c2c1CCC(=O)N2)C1CCCCC1")
29.3
>>> quantitative_readout("CCCNC(=O)CC(C)COc1ccc2c(c1)CCC(=O)N2 (stereo not shown) [compound 45, reference compound]")
5
>>> quantitative_readout("CCOC(=O)CCCOc1ccc2[nH]c(=O)ccc2c1 [compound 34, 6-(3-Ethoxycarbonylpropoxy)carbostyril, reference compound]")
86
>>> quantitative_readout("CCCCN(C(=O)CCCCOc1ccc2c(c1)CCC(=O)N2)C1CCCCC1")
78.5
>>> quantitative_readout("O=C1CCc2cc(OCCCC(=O)N(C3CCCCC3)C3CCCCC3)ccc2N1")
59.4
>>> quantitative_readout("CCN1C(=O)CCc2c(OCCCC(=O)NCc3ccccc3)cccc21 [compound 44, reference compound]")
0
>>> quantitative_readout("CN(C(=O)CCCOc1ccc2[nH]c(=O)ccc2c1)C1CCC(O)CC1 (stereo not shown)")
100
>>> quantitative_readout("CCN(C(=O)CCCOc1ccc2[nH]c(=O)ccc2c1)c1ccccc1")
76.3
>>> quantitative_readout("CC1CCCCC1N(C)C(=O)CCCOc1ccc2[nH]c(=O)ccc2c1 (stereo not shown)")
100
>>> quantitative_readout("O=C(CCCOc1ccc2[nH]c(=O)ccc2c1)NC1CCCCC1")
45.8
>>> quantitative_readout("CN(C(=O)CCCOc1ccc2c(c1)CCC(=O)N2)C1CCCCC1")
92.6
>>> quantitative_readout("O=C1CCc2cc(OCCCC(=O)OC3CCCCC3)ccc2N1 [compound 40, reference compound]")
8
>>> quantitative_readout("O=C1CCc2c(cccc2OCC(=O)N2CCOCC2)N1 [compound 42, reference compound]")
0
>>> quantitative_readout("CCOC(=O)CCCOc1ccc2c(c1)CCC(=O)N2 [compound 29, reference compound]")
38
>>> quantitative_readout("CC(=O)OC1CCC(N(C)C(=O)CCCOc2ccc3[nH]c(=O)ccc3c2)CC1 (stereo not shown)")
84.8
>>> quantitative_readout("CCN(C(=O)CCCOc1c(Cl)cc(Cl)c2c1CCC(=O)N2)c1ccccc1")
65.2
>>> quantitative_readout("COc1ccc(CCN(C)C(=O)CCCOc2ccc3[nH]c(=O)ccc3c2)cc1OC")
46.5
>>> quantitative_readout("O=C1CCc2cc(OCCCC(=O)N(c3ccccc3)c3ccccc3)ccc2N1")
43.5
